target.of.assay: CviR (Chromobacterium violaceum)
Sequence (D3W065 1-265): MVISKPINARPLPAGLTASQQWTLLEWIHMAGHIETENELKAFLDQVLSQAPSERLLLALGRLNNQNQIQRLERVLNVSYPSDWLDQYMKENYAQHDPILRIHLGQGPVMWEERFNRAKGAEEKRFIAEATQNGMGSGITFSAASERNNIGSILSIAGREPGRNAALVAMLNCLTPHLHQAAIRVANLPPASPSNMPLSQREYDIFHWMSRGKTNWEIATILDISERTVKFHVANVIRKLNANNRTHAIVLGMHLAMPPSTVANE
test.name: cell-based
Format: cell-based
Set-up: made in house; host or cells: E. coli BL21(DE3) pLysS, plasmid pET23b
condition.info: constant 500 nM C6-HSL; read-out: IC50 for inhibition of vioA-gfp expression
Measured pIC50, listed per entry.
On this scale, pIC50 is minus log10 of a concentration expressed in M (mol/L).

// solved cases for pIC50 follow
• CCCCCCCCCC(=O)N[C@H]1CCOC1=O [C10-HSL, reference compound] = 6.68
• O=C(CCCOc1ccc(Cl)cc1)NC1CCOC1=O (stereo not shown) = 6.42

If you can, please state the reported pIC50 value of CCCCCCCCCCCC(=O)N[C@H]1CCOC1=O .
6.31

Thanks! And CCCCCCCCCCCCCC(=O)N[C@H]1CCOC1=O ?
6.57
